Let's look at some compounds and their measured Fraction of radioligand in DPBS at 25° C., 1 h.
- Assay details: Product stability in DPBS at 25° C.
- Assay type: physicochemical
- Stated conditions: DPBS (+Ca2+, +Mg2+), 1 h, mean ± SD, normalized to fraction immediately after preparation
Answer with a number only, understood to be in %.

GET /values?readout=Fraction of radioligand in DPBS at 25° C., 1 h&item= CC1(C)CN(CCCCC(=O)N[C@@H](Cc2ccccc2)C(=O)N[C@@H](Cc2ccccc2)C(=O)N[C@@H](CCCCNC(=O)CCCCCCC(=O)NCCCC[C@H](NC(=O)N[C@@H](CCC(=O)O)C(=O)O)C(=O)O)C(=O)O)CC[N]2CC(C)(C)[S][99Tc]2(=[O])[S]1 (some centres unmarked) [[^99mTc]TcO-1]
101.5

Further, for CC1(C)CN(CCCCC(=O)N[C@@H](Cc2ccccc2)C(=O)N[C@@H](Cc2ccccc2)C(=O)N[C@H](CCCCNC(=O)CCCCCCC(=O)NCCCC[C@H](NC(=O)N[C@@H](CCC(=O)O)C(=O)O)C(=O)O)C(=O)O)CC[N]2CC(C)(C)[S][99Tc]2(=[O])[S]1 (some centres unmarked) [[^99mTc]TcO-2] ?
89.9

---

- System: LNCaP cells
- Assay details: Determination of the internalization (surface binding and internalized activity)
- Assay type: cell-based, human
- Stated conditions: cytosolic activity, 25 nM radioligand, 1 h, 37° C.; mean ± SEM
Readout label: Internalization, 37° C. (% AD/mg Protein)
Answer with a number only, understood to be in % AD/mg Protein.

Example results:
>>> reported("O=C(O)CC[C@H](NC(=O)N[C@@H](CCCCNC(=O)CCCCCCC(=O)NCCCC[C@@H](NC(=O)[C@H](CCC(=O)O)NC(=O)[C@H](CCC(=O)O)NC(=O)CCC(=O)NCCCN1CC[S][99Tc]2(=[O])[S]CC[N]2CC1)C(=O)O)C(=O)O)C(=O)O (stereo partly shown) [[^99mTc]TcO-6]")
2.9
>>> reported("O=C([O-])CN(CCN(CC(=O)[O-])Cc1cc(CCC(=O)NCCCCCC(=O)NCCCC[C@H](NC(=O)N[C@@H](CCC(=O)O)C(=O)O)C(=O)O)ccc1[O-])Cc1cc(CCC(=O)O)ccc1[O-].[68Ga+3].[OH3+] [^68Ga-PSMA11, reference compound]")
0.5
>>> reported("CC1(C)CN(CCCCC(=O)N[C@H](Cc2ccc(O)c(I)c2)C(=O)N[C@H](Cc2ccccc2)C(=O)N[C@H](CCCCNC(=O)CCCCCCC(=O)NCCCC[C@H](NC(=O)N[C@@H](CCC(=O)O)C(=O)O)C(=O)O)C(=O)O)CC[N]2CC(C)(C)[S][99Tc]2(=[O])[S]1 (stereo partly shown) [[^99mTc]TcO-4]")
1.9

GET /values?readout=Internalization, 37° C. (% AD/mg Protein)&item= CC1(C)CN(CCCCC(=O)N[C@@H](CCCCNC(=O)CCCCCCC(=O)NCCCC[C@H](NC(=O)N[C@@H](CCC(=O)O)C(=O)O)C(=O)O)C(=O)O)CC[N]2CC(C)(C)[S][99Tc]2(=[O])[S]1 (stereo partly shown) [[^99mTc]TcO-3]
1.0

---

- Assay details: Product stability in DPBS at 25° C.
- Format: physicochemical
- Stated conditions: DPBS (+Ca2+, +Mg2+), 4 h, mean ± SD, normalized to fraction immediately after preparation
Readout label: Fraction of radioligand in DPBS at 25° C., 4 h (%)
Answer with a number only, understood to be in %.

Example results:
>>> reported("CC1(C)CN(CCCCC(=O)N[C@@H](CCCCNC(=O)CCCCCCC(=O)NCCCC[C@H](NC(=O)N[C@@H](CCC(=O)O)C(=O)O)C(=O)O)C(=O)O)CC[N]2CC(C)(C)[S][99Tc]2(=[O])[S]1 (stereo partly shown) [[^99mTc]TcO-3]")
98.4
>>> reported("CC1(C)CN(CCCCC(=O)N[C@H](Cc2ccc(O)c(I)c2)C(=O)N[C@H](Cc2ccccc2)C(=O)N[C@H](CCCCNC(=O)CCCCCCC(=O)NCCCC[C@H](NC(=O)N[C@@H](CCC(=O)O)C(=O)O)C(=O)O)C(=O)O)CC[N]2CC(C)(C)[S][99Tc]2(=[O])[S]1 (stereo partly shown) [[^99mTc]TcO-4]")
105.5
>>> reported("CC1(C)CN(CCCCC(=O)N[C@@H](Cc2ccccc2)C(=O)N[C@@H](Cc2ccccc2)C(=O)N[C@@H](CCCCNC(=O)CCCCCCC(=O)NCCCC[C@H](NC(=O)N[C@@H](CCC(=O)O)C(=O)O)C(=O)O)C(=O)O)CC[N]2CC(C)(C)[S][99Tc]2(=[O])[S]1 (stereo partly shown) [[^99mTc]TcO-1]")
100.2

Shifting focus to the molecule that follows.
GET /values?readout=Fraction of radioligand in DPBS at 25° C., 4 h&item= CC1(C)CN(CCCCC(=O)N[C@@H](Cc2ccccc2)C(=O)N[C@@H](Cc2ccccc2)C(=O)N[C@H](CCCCNC(=O)CCCCCCC(=O)NCCCC[C@H](NC(=O)N[C@@H](CCC(=O)O)C(=O)O)C(=O)O)C(=O)O)CC[N]2CC(C)(C)[S][99Tc]2(=[O])[S]1 (stereo partly shown) [[^99mTc]TcO-2]
80.7
